- Tested on: barnyardgrass
- TEST DETAILS: Test C preemergence
- Assay type: in vivo, Echinochloa crusgalli
- DETAILS: Preemergence, 500 g ai/ha; visual rating after 10 days, 0 to 100 scale (0 no effect, 100 complete control)
Quick reference for Plant response rating, Barnyardgrass among some compounds
ASSAY METRIC: Plant response rating, Barnyardgrass

compound=CCc1ccc(-n2cnc(C(C)(C)O)n2)cc1C(=O)N1C[C@H](C)Oc2c(C)cccc21 observed_result=100
compound=C[C@H]1CN(C(=O)c2cc(-n3cnc(C4CC4)n3)cc3c2OCCO3)c2cccc(Cl)c2O1 observed_result=90
compound=COc1ccc(-n2cncn2)cc1C(=O)N1C[C@H](C)Oc2c(Cl)cccc21 observed_result=100
compound=Cc1ccc(-n2cnc(C(C)(C)O)n2)cc1C(=O)N1C[C@H](C)Oc2c(C)cccc21 observed_result=100
compound=Cc1cccc2c1O[C@@H](C)CN2C(=O)c1cccc(-n2cnc(C#N)c2)c1 observed_result=60
compound=Cc1cccc2c1O[C@@H](C)CN2C(=O)c1cc(-n2cnc(C(C)C)n2)cc2occc12 observed_result=100
compound=Cc1ccc(-n2cnc(C3(C(F)(F)F)CCC3)n2)cc1C(=O)N1C[C@H](C)Oc2c(Cl)cccc21 observed_result=70
compound=Cc1ccc(-n2cnc(C(C)(F)F)n2)cc1C(=O)N1C[C@H](C)Oc2c(Cl)cccc21 observed_result=100
compound=COc1ccc(-n2cnc(C(C)(C)O)n2)cc1C(=O)N1C[C@H](C)Oc2c(C)cccc21 observed_result=100
compound=COc1ccc(-n2cncn2)cc1C(=O)N1C[C@H](C)Oc2c(F)cccc21 observed_result=100
compound=Cc1cccc2c1O[C@@H](C)CN2C(=O)c1cc(-n2cnc(C(C)C)n2)cc2ccoc12 observed_result=90
compound="Cc1ccc(-n2cnc(C[S+](C)[O-])n2)cc1C(=O)N1C[C@H](C)Oc2c(Cl)cccc21 (some centres unmarked)" observed_result=90
compound=Cc1cccc2c1O[C@H](C)CN2C(=O)c1cccc(-c2ncn(C(C)C)n2)c1 observed_result=0
compound=COc1cc(C(=O)N2C[C@H](C)Oc3c(Cl)cccc32)cc(-n2cnc(C)n2)c1 observed_result=100
compound=COc1cc(C(=O)N2C[C@H](C)Oc3c(Cl)cccc32)cc(-n2cnc(C3CCC3)n2)c1 observed_result=100
compound=CCc1c(F)cc(-n2cnc(C(C)C)n2)cc1C(=O)N1C[C@H](C)Oc2c(Cl)cccc21 observed_result=90
compound=Cc1cccc2c1O[C@@H](C)CN2C(=O)c1cccc(-n2cnc(N(C)C)n2)c1 observed_result=90
compound="Cc1ccc(-n2cnc(C(C)(C)C)n2)cc1C(=O)N1CC(C(F)(F)F)Oc2c(Cl)cccc21 (single isomer, unassigned)" observed_result=90
compound=Cc1cc(-n2cnc(C(C)C)n2)cc(C(=O)N2C[C@H](C)Oc3c(Cl)cccc32)c1F observed_result=100
compound=COC[C@H]1CN(C(=O)c2cc(-n3cnc(C(C)(C)C)n3)ccc2C)c2cccc(Cl)c2O1 observed_result=100
compound=Cc1cc(-n2cnc(C(C)C)n2)cc(C(=O)N2C[C@H](C)Oc3c(Cl)cccc32)c1C observed_result=90
compound=COC[C@H]1CN(C(=O)c2cc(-n3cnc(C(C)(C)O)n3)ccc2C)c2cccc(Cl)c2O1 observed_result=100
compound=COc1c(C)cc(-n2cnc(C(C)C)n2)cc1C(=O)N1C[C@H](C)Oc2c(Cl)cccc21 observed_result=90
compound=COC[C@H]1CN(C(=O)c2cc(-n3cnc(C4CC4)n3)ccc2OC)c2cccc(Cl)c2O1 observed_result=90
compound=CCc1c(C)cc(-n2cnc(C(C)C)n2)cc1C(=O)N1C[C@H](C)Oc2c(Cl)cccc21 observed_result=0
compound=CSCc1ncn(-c2ccc(C)c(C(=O)N3C[C@H](C)Oc4c(Cl)cccc43)c2)n1 observed_result=90
compound=CCc1ncn(-c2ccc(OC)c(C(=O)N3C[C@H](C)Oc4c(C)cccc43)c2)n1 observed_result=100
compound=Cc1ccc(-n2cnc(CC3CC3)n2)cc1C(=O)N1C[C@H](C)Oc2c(Cl)cccc21 observed_result=100
compound=COC[C@H]1CN(C(=O)c2cc(-n3cnc(C4CCC4)n3)ccc2OC)c2cccc(Cl)c2O1 observed_result=80
compound=Cc1ccc(-n2cnc(C(C)C)n2)cc1C(=O)N1C[C@H](C)Oc2c(F)cccc21 observed_result=100
compound=COc1ccc(-n2cnc(C(C)C)n2)cc1C(=O)N1C[C@H](C)Oc2c1cccc2C(F)(F)F observed_result=100
compound=CCc1ncn(-c2cc(OC)cc(C(=O)N3C[C@H](C)Oc4c(Cl)cccc43)c2)n1 observed_result=100
